The following compounds were reported with IC50 values on Human Factor XIIa (Homo sapiens, UniProt P00748) in different studies.

Examples with their reported IC50 follow.
>  <Compound>
Cn1ccc(OCC23CN(C(=O)Oc4ccccc4)C(CNc4cccc5c(N)nccc45)(C2)C3)cc1=O

>  <Measured Target>
Human Factor XIIa (Homo sapiens, UniProt P00748)

>  <Quantity Name>
IC50

>  <Assay Value>
10 to 100 nM

$$$$
>  <Compound>
CCNC(=O)c1nn(-c2cccc(Cl)c2)c2c1CCN(c1cccc(N3CC4(CC4)N(C)C3=O)c1)C2=O

>  <Measured Target>
Human Factor XIIa (Homo sapiens, UniProt P00748)

>  <Quantity Name>
IC50

>  <Assay Value>
3000 to 10000 nM

$$$$
>  <Compound>
CCc1cc2c(NCc3ccc(NCC4CCN(C)CC4)nc3)ccnc2[nH]1

>  <Measured Target>
Human Factor XIIa (Homo sapiens, UniProt P00748)

>  <Quantity Name>
IC50

>  <Assay Value>
10000 to 40000 nM

$$$$
>  <Compound>
Nc1nccc2cc(NCc3ccc(OCC4CCn5ccnc5C4)nc3)ccc12 (stereo not shown)

>  <Measured Target>
Human Factor XIIa (Homo sapiens, UniProt P00748)

>  <Quantity Name>
IC50

>  <Assay Value>
100 to 300 nM

$$$$
>  <Compound>
CN1CCC(COc2cc(CNc3ccc4ncc(=O)[nH]c4c3)ccn2)CC1

>  <Measured Target>
Human Factor XIIa (Homo sapiens, UniProt P00748)

>  <Quantity Name>
IC50

>  <Assay Value>
40000 to 100000 nM

$$$$
>  <Compound>
Cc1cccc(-n2nc(C(=O)NCC3CC3)c3c2C(=O)N(c2ccc4c(c2)C(=O)N(C)CC4)CC3)c1

>  <Measured Target>
Human Factor XIIa (Homo sapiens, UniProt P00748)

>  <Quantity Name>
IC50

>  <Assay Value>
300 to 1000 nM

$$$$
>  <Compound>
O=C(NCC1CC1)c1nn(-c2cccc(Cl)c2)c2c1CCN(c1ccc3c(c1)C(=O)N(CCO)CCO3)C2=O

>  <Measured Target>
Human Factor XIIa (Homo sapiens, UniProt P00748)

>  <Quantity Name>
IC50

>  <Assay Value>
100 to 300 nM

$$$$
>  <Compound>
Nc1nccc2c(NCC34CC(COC5CCc6nccn6C5)(CO3)C4)cccc12 (stereo not shown)

>  <Measured Target>
Human Factor XIIa (Homo sapiens, UniProt P00748)

>  <Quantity Name>
IC50

>  <Assay Value>
300 to 1000 nM

$$$$
>  <Compound>
CN1CCC(CNc2cc(CNc3ccc4c(N)nccc4c3)ccn2)CC1

>  <Measured Target>
Human Factor XIIa (Homo sapiens, UniProt P00748)

>  <Quantity Name>
IC50

>  <Assay Value>
100 to 300 nM

$$$$
>  <Compound>
CN1CCc2ccc(N3CCc4c(C(=O)NCC56COC(CO)(C5)C6)nn(-c5cccc(Cl)c5)c4C3=O)cc2C1

>  <Measured Target>
Human Factor XIIa (Homo sapiens, UniProt P00748)

>  <Quantity Name>
IC50

>  <Assay Value>
300 to 1000 nM

$$$$

Q: Tell me the measured IC50 of CN1CCc2ccc(N3CCc4c(C(=O)NCC(O)C5CC5)nn(-c5cccc(Cl)c5)c4C3=O)cc2C1 (stereo not shown) , please.
A: 300 to 1000 nM

Q: Again, but for CN1CCC(Oc2ccc(CNc3cnc4[nH]cc(Cl)c4c3)cc2)CC1
A: 10000 to 40000 nM

Q: What about this compound? O=C(NCC1CC1)c1nn(-c2cccc(Cl)c2)c2c1CCN(c1ccc3c(c1)C(=O)N(CCF)CC3)C2=O
A: 100 to 300 nM

Q: Query Cc1n[nH]c2c1CCC2Nc1ccc(CNc2ccc3c(N)ncc(Cl)c3c2)cn1 (stereo not shown) next
A: 10000 to 40000 nM

Q: Proceed to Cn1ccc(OCC23CC(CNc4cccc5c(N)nccc45)(CN2C(=O)CCc2cccnc2)C3)cc1=O
A: 100 to 300 nM

Q: Also need CN1CCc2ccc(N3CCc4c(C(=O)NCC56CCC(CO)(C5)O6)nn(-c5cccc(Cl)c5)c4C3=O)cc2C1=O (stereo not shown) , thanks.
A: 300 to 1000 nM

---

pIC50: −log10 of the molar value.
A compilation of pIC50 values for Human Factor XIIa (Homo sapiens, UniProt P00748) from the published literature.

>  <Compound>
Clc1cc2c(NCC34CC(COC5CCn6ccnc6C5)(C3)C4)ccnc2[nH]1 (stereo not shown)

>  <Measured Target>
Human Factor XIIa (Homo sapiens, UniProt P00748)

>  <Assay Value>
6.00 to 6.52

$$$$
>  <Compound>
CC(C)c1cc(OCC23COC(CNc4cccc5c(N)nccc45)(C2)C3)cn2ccnc12

>  <Measured Target>
Human Factor XIIa (Homo sapiens, UniProt P00748)

>  <Assay Value>
6.52 to 7.00

$$$$
>  <Compound>
CCOC(=O)c1nn(-c2cccc(Cl)c2)c2c1CCN(c1cccc(C(=O)N(C)C)c1)C2=O

>  <Measured Target>
Human Factor XIIa (Homo sapiens, UniProt P00748)

>  <Assay Value>
5.00 to 5.52

$$$$
>  <Compound>
CC(C)N1CCC(OCc2cc(CNc3ccc4c(N)ncc(Cl)c4c3)ccn2)CC1

>  <Measured Target>
Human Factor XIIa (Homo sapiens, UniProt P00748)

>  <Assay Value>
5.52 to 6.00

$$$$
>  <Compound>
Nc1nccc2c(NCc3ccc(CN4CCOCC4)cc3F)cccc12

>  <Measured Target>
Human Factor XIIa (Homo sapiens, UniProt P00748)

>  <Assay Value>
4.40 to 5.00

$$$$

Q: Could you tell me which pIC50 is on file for Nc1nccc2c(NCC34CC(COc5cnccn5)(CCO3)C4)cccc12 ?
A: 4.40 to 5.00

Q: Consider next the compound Nc1nccc2c(N3CC4(CC(OCc5ccn6ccnc6c5)C4)C3)cccc12 in the same way.
A: 4.40 to 5.00

Q: Now the same for Cc1nnc(CNC(=O)c2nn(-c3cccc(Cl)c3)c3c2CCN(c2ccc4c(c2)C(=O)N(C)CC4)C3=O)s1
A: 6.00 to 6.52

Q: // next record CN1CCC(OCc2ccc(CNc3ccc4c(N)nccc4c3)c(F)c2)CC1
A: 6.52 to 7.00

Q: // same read-out, input: CN1Cc2ccc(N3CCc4c(C(=O)NCc5ccccc5)nn(-c5cccc(Cl)c5)c4C3=O)cc2C1
A: 6.00 to 6.52

Q: Check CC1(C)OCCC1NC(=O)c1nn(-c2cccc(Cl)c2)c2c1CCN(c1ccc3c(c1)CN(CCO)CC3)C2=O (stereo not shown) too.
A: 6.52 to 7.00

Q: Subsequent entry: CCNC(=O)c1nn(-c2cc(Cl)cc(COC)c2)c2c1CCN(c1ccc3c(c1)C(=O)N(C)CC3)C2=O
A: 5.00 to 5.52

Q: // query: C[C@H](O)CN1CCc2ccc(N3CCc4c(C(=O)NCC5CC5)nn(-c5cccc(Cl)c5)c4C3=O)cc2C1
A: 6.52 to 7.00

Q: What do you have for Nc1ncc(Cl)c2cc(NCc3ccc(OC4CCn5ccnc5C4)nc3)ccc12 (stereo not shown) ?
A: 5.52 to 6.00

Q: # iterate: Nc1nccc2cc(NCc3ccnc(OCC4CCn5cnnc5C4)c3)ccc12 (stereo not shown)
A: 6.00 to 6.52

Q: Next compound up: CN1CCC(OCc2ccc(CNc3cccc4c(N)nccc34)cc2)CC1
A: 6.52 to 7.00

Q: Then this compound: Nc1nccc2c(NCC34CC(COC5Cc6nccn6C5)(C3)C4)cccc12 (stereo not shown)
A: 5.52 to 6.00

Q: Another compound to look at: O=C(NCC1CC1)c1nn(-c2cccc(Cl)c2)c2c1CCN(c1cccc(CN3CCCCC3)c1)C2=O
A: 6.00 to 6.52

Q: Follow-up item: CCOC(=O)c1nn(-c2cccc(Cl)c2)c2c1CCN(c1cccc(N3CC(C(F)(F)F)CC3=O)c1)C2=O (stereo not shown)
A: 4.40 to 5.00

Q: // next record Cn1ccnc1COCc1ccc(CNc2cccc3c(N)nccc23)c(F)c1
A: 5.52 to 6.00

---

# merged literature set: pIC50 with Human Factor XIIa (Homo sapiens, UniProt P00748)
pIC50: −log10 of the molar value.

Use these answered entries as a reference point.
>  <Molecule>
Nc1nccc2c(NCC34CC(COc5ccc6c(c5)CCNC6=O)(CCO3)C4)cccc12

>  <pIC50>
6.00 to 6.52

$$$$
>  <Molecule>
Nc1nccc2c(N3CCCC3c3ccc(N4CCn5c(nnc5C(F)F)C4)nc3)cccc12 (stereo not shown)

>  <pIC50>
5.52 to 6.00

$$$$
>  <Molecule>
Nc1nccc2c(NCC34CC(COc5cccc(N6CCCC6=O)c5)(CO3)C4)cccc12

>  <pIC50>
6.00 to 6.52

$$$$

// moving on: another record for pIC50
Q: Need pIC50, item CCNC(=O)c1nn(-c2cccc(Cl)c2)c2c1CCN(c1cccc(N3C(=O)C[C@H]4CCC[C@H]43)c1)C2=O
A: 4.40 to 5.00
